test: yeast display, Sf9 membrane polyspecificity reagent, FACS + sequencing; frameworks hold sequencing errors
quantityKind: polyreactivity (PSR sort gate)

[[record]]
primarysequence = "QVQLVESGGGLVQAGGSLRLSCAASGSIFDTYAMGWYRQAPGKERELVAAITQSGDRTYYADSVKGRFTISRDNAKNTVYLQMNSLKPEDTAVYYCYTRRGSAWSCDYWGQGTQVTVSS"
quantitykind = "polyreactivity (PSR sort gate)"
observed = "low polyreactivity"

[[record]]
primarysequence = "QVQLVESGGGLVQAGGSLRLSCAASGSIFYPYAMGWYRQAPGKERELVAAITTGGGSTYADSVKGRFTISRDNAKNTVYLQMNSLKPEDTAVYYCNTDEYDIGSVYTLWEYDYWGQGTQVTVSS"
quantitykind = "polyreactivity (PSR sort gate)"
observed = "low polyreactivity"

[[record]]
primarysequence = "QVQLVESGGGLVQAGGSLRLSCAASGFIFWYYAMGWSRQAPGKERELVAAISYGGGSTYYADSVKGRFTISRDNAKNTVYLQMNSLKPEDTAVYYCAAAPRWKASRLYYWGQGTQVTVSS"
quantitykind = "polyreactivity (PSR sort gate)"
observed = "high polyreactivity"

[[record]]
primarysequence = "QVQLVESGGGLVQAGGSLRLSCAASGIIFYYYVMGWDRQAPGKERELVAAISDSGDNTYYADSVKGRFTISRDNAKKTVYLQMNSVKPEDTAVYYCNSQVDYWSNPWIYRKYDYWGQGTQVTVSS"
quantitykind = "polyreactivity (PSR sort gate)"
observed = "high polyreactivity"

[[record]]
primarysequence = "QGHLVESGGGLVQAGGSLRLSCAASGVTFYTYDMGWYRQAPGKERELVAGIDWSGGSTYYADSVNGRFTISRDNAKNTVDLLMNSLKPEYTAVYYCASDYYYASQMDYWGQGTQVTVSS"
quantitykind = "polyreactivity (PSR sort gate)"
observed = "low polyreactivity"

[[record]]
primarysequence = "QVQLVESGGGLVQAGGSLRLSCDASGSTFAAYAMGWYRQAPGKERELVAAISRSGGTTYYADSVKGRFTISRDNAKNTVYLQMNSLKPEDTAVYYCAAELSLGNYWYDYWGQGTQVTVSS"
quantitykind = "polyreactivity (PSR sort gate)"
observed = "high polyreactivity"


As a next step, examine the sequence that follows.
The reported polyreactivity (PSR sort gate) of the sequence QVQLVESGGGLVQAGGSLRLSCAASGSIFGKYAMGWYRQAPGKERELVAAISWSGGSTYYADSVKGRFTISRDNAKNTVYLQMNSLKPEDTAVYYCAKRRVYYGSRYNYWGQGTQVTVSS was high polyreactivity

====

test: yeast display, Sf9 membrane polyspecificity reagent, FACS + sequencing; frameworks hold sequencing errors
quantityKind: polyreactivity (PSR sort gate)

Record excerpt, results attached:
[[record]]
primarysequence = "QVQLVESGGGLVQAGGSLRLSCAASGLTFQNNAMGWYRQAPGKERELVAVITRIGGSTYYADSVKGRFTISRDNAKNTVYLQMNSLKPEDTAVYYCAAGYRTRRRLHDYWGQGTQVTVSS"
quantitykind = "polyreactivity (PSR sort gate)"
observed = "high polyreactivity"

[[record]]
primarysequence = "QVQLVESGGGLVQAGGSLRLSCAASGSIFGGNAMGWYRQAPGKERELVATITSAGSTYYADSVKGRFTISRDNAKNTVYLQMNSLKPEDTAVYYCAADPTYYWRYYPTRLYVEYDYWGQGTQVTVSS"
quantitykind = "polyreactivity (PSR sort gate)"
observed = "low polyreactivity"

[[record]]
primarysequence = "QVQLVESGGGLVQAGGSLRLSCAASGFIFSAYVMGWYRQAPGKERELVAAISQSGARTYYADSVKGRFTISRDNAKNTVYLQMNSLKPEDTAVYYCAADRRDFRTYDYWGQGTQVTVSS"
quantitykind = "polyreactivity (PSR sort gate)"
observed = "high polyreactivity"

[[record]]
primarysequence = "QVQLVESGGGLVQAGGSLRLSCASSGSIFEANAMGWYRQAPGIESELVAAISTTGGNTYYADSVKGRFTISRDNAKNTVYLQMNSLKPEDTAVYYCAADPSQPRIDSSNYDYWGQGTQVTVSS"
quantitykind = "polyreactivity (PSR sort gate)"
observed = "low polyreactivity"


Form: sequence = QVQLVESGGGLVQAGGSLRLSCAASGLTFSRYAMGWYRQAPGKERELVAAITWSGSSTYYADSVKGRFTISRDNAKNTVYLQMNSLKPEDTAVYYCAARYGYSRGPYYRSDYWGQGTQVTVSS ; polyreactivity (PSR sort gate) = high polyreactivity

Per the record, QVQLVESGGGLVQAGGSLRISCAASGRIFGINSMGWYRQAPAKERELVAAMSRGGTTNYADSVKGRFTISRDNAKNTVYLQMNSLKPEDTAVYYCNAVGFYAPNTFDYWGQGTQVTVSS has polyreactivity (PSR sort gate) of high polyreactivity

For reference, reported polyreactivity (PSR sort gate) for QVQLVESVGGLVQAGGSLRLSCAASGSTFYSYSMGWYRQEPGKERELVAAISWNGGSTYYADSVKGRFTISRDNAKNTVYFQMNSLKPEVTAVYYCAARGGYPYWRYYRFYKMDYWGQGTQVTVSS stands at low polyreactivity

QVQLVESGGGLVQAGGSLRLSCAASGRIFAGYVMGWYRQAPGKERELVAAITSGGGTDYADSVKGRFTISRDNAKNTVYLQMNSQKPEDTAVYYCAADPYYSWFGWDYEYWGQGTQVTVSS has a reported polyreactivity (PSR sort gate) of high polyreactivity

Query QVQLVESGGGLVQAGGSLRLSCAASGSIFDGYAMGWYRQAPGKERELVAAISSGGSTYYADSVKGRFTISRDNAKNTVYLQMNSLKPEDTAVYYCNRVRRRVSTSIYNYWGQGTQVTVSS yields polyreactivity (PSR sort gate) of high polyreactivity

Measured polyreactivity (PSR sort gate), QVHLVESGGGLVQAGGSLRLSCAASGFTFYRYAMGWYRQAPGKDRELVAAITWSGGSTYYADSVKGRFTISRDNAKNTVYLQMNSLKPEDTAVYYCAADIYDGGFDYWGQGTQVTVSS : low polyreactivity

Entry QVQLVESGGGLVQAGGSLRLSCAASGRIFRRYAMGWYRQAPGKERELVAAISSRGGRTYYADSVKGRFTISRDNAKNTVYLQMNSLKPEETAVYYCNARSFRWCRWLRLPFNYWGQGTQVTVSS — recorded polyreactivity (PSR sort gate) = high polyreactivity

Given item QVQLVESGRGLVQAGGSLRLICAASRSIFSYNAMGWYRQAPGKERELVAAIRRGGGTYYADSVKGRFTISRDNAKNTVYLQMISLKPEDTAVYYCNAVRGNNFLGDGYWGLGTQVTVSS , the value recorded as its polyreactivity (PSR sort gate) is high polyreactivity

Value of polyreactivity (PSR sort gate) reported for the sequence QVQLVESGGGLVQAGGSLRLSCAASGTIFTHNAMGWYRQAAGKEREFVAAISSGGSTNYADSVNGRFTISRDNAKNTVYLQMNSLKPQDTAVYYCAKSIDGWYWRRRRYDYWGHGTQVTVSS is low polyreactivity

Value of polyreactivity (PSR sort gate) reported for the sequence QVQHVESGGGLVQARGSLRLSCAASGSTIKHYGMGWYRHAPGKERELVAAITSGGRTYYADSVKGRFTISRDNAKNTVYLQMNSLKQDDSAGYYCAALRVQQVKSYYYWGQGTQVTVSS is high polyreactivity

Sample QVQLVESGGGLVQAGGSLRLSCAASGSTFYVNTMGWYRQAPGKERELVAAITDSGVGTYADSVKGRFTISRDNAKNTVYLQMNSLKPEDTAVYYCAADGVTRDYDYWGQGTQVTVSS ; polyreactivity (PSR sort gate) observed: low polyreactivity

Lookup result for QVQLVESGGGLVLAGGSLRLSCAASGFIFATYAMGWYRQAPGKERVLVAAISRRGVRTNYADSVKGRFTISRDNAKNTVYLQMNSLKPEDTAVYYSNAQSHYGKIPMYYWGQGTQVTVSS ; measured polyreactivity (PSR sort gate): high polyreactivity

====

test: yeast display, Sf9 membrane polyspecificity reagent, FACS + sequencing; frameworks hold sequencing errors
quantityKind: polyreactivity (PSR sort gate)

Field: example entries. Status: answers known.
[[record]]
primarysequence = "QVQLVESGGGLVQAGGSLRLSCAASGRTLNVYAMGWYRQAPGKDREFVAAITVSGGNTYADSVKGRFTISRDNAKNTVYLQMNSLKPEDTAVYYCAVDRFSYSRRYDYWGQGTQVTVSS"
observed = "high polyreactivity"

[[record]]
primarysequence = "QVQLVESGGGLVQAGGSLRLSCAASGRTFLGYAMGWSRQAPGKERELVAAISTGGGRTYYADSVKGRFTISRDNAKNTVYLQMNSLKPEDTAVYYCATVPRHGAPTTFNYWGQGTQVTVSS"
observed = "high polyreactivity"

[[record]]
primarysequence = "QVQLVESGGGLVQAGGSLRLICAASGLIFYDNMGWYRQAPGKERELVAAISSSGGSTSYADSVKGRFTISRDNAKNTVYLQMNSLKPEDTAVYYCAADSYPAYLGFVGFDYWGQGTQVTVSS"
observed = "low polyreactivity"

[[record]]
primarysequence = "QVQLVESGGGLVQAGGSLRLSCAASGFTFSTYAMGWYRQAPGKEREFVAAISRGGTRTYYADSVKGRFTISRDNAKNTVYLQMTSLKPEDTAVYYCAARSKARNGYDYWGQGTQVTVSS"
observed = "high polyreactivity"

[[record]]
primarysequence = "QVQLEESGGGLVQAGGSLRLSCAASGLTLGRYAMGWYRPAPGKERELVAVITGGGSTNYADSVKGRFTISRDNAKNTVYLQMNSLKPEDTAVYYCAVRGGIFQTLSTWYRYYYWGQGTQVTVSS"
observed = "high polyreactivity"

[[record]]
primarysequence = "QVQLVESGGGLVQAGGSLRLSCAASGRTFYYYAMGWYRHAPGKERELVAAISIGGITYADSVKGRFTISRDNAKNTVYLQMNSLKPEDTAVYYCAATARQSRGRFYWGQGTQVTVSS"
observed = "low polyreactivity"


For this sequence ( QVQLVESGGGLVQAGGRLSLSCAASGSIFEKNAIGWYIQAPGKERELFAAISSSGGRTNYADSVKGRYTISRDNAKITVYFQMNSLKPEDTAVYYCAAYRRGHRYPGYEYWGQGTQVTVSS ), measured polyreactivity (PSR sort gate) is high polyreactivity

Looking up QVQLVESGGGLVQAGGSLRLSCAASGRIFKIYAMGWYRQAQGKERELVAAISRGVRTYYADSVKGRFTISRDNAKNTVYLQMNSLKPEDTAVYYCAADLLISPEFYYWGQGTQVTVSS , I found its polyreactivity (PSR sort gate) recorded as high polyreactivity

The recorded polyreactivity (PSR sort gate) for QVQLVESGGGLVQAGGSLRLSCAASGFTFHNNVMGWYRQAPGKERELVATISKSGGSTYYADSVKGRFTISRDNAKNTVYLQMNSLKPEDTAVYYCARRYRDYGRYGYWGQGTQVTVSS is high polyreactivity

get_value(item= QVQLVESGGGLVQAGGSLRLSCAASGFIFGTYVMGLYRTAPGKERELLAAISESGGRTYYADSVKGRFTISRDNAKNTVYIQMNSLIPEDTAVYYCAKVRHIRFHYYYGYQSYYYWGQGTQVTVSS , readout=polyreactivity (PSR sort gate)) returns high polyreactivity

// field: polyreactivity (PSR sort gate); key: QVQLVESGGGLVQAGGSLRLSCAASGFIFFYAMGWYRQAPGKERELVASIDSGVSTDYADSVKGRFTISRDNAKNTVYLQMNSLTPEDTAVYYCAADPWSSLNYDYWGQGTQVTVSS ; value = low polyreactivity
